I'd be grateful if you could share measured half-life for these entries.
Assay: Plasma stability assay (human plasma)
Assay type: in vitro ADME
Conditions: 37° C., unit min, read-out: T½ in human plasma (converted)
Form entry: value (min) — number only.

Query string: What half-life value was documented for this compound, C=C(C)[C@@H]1CCC(C)=C[C@H]1c1c(O)cc(CCCCC)cc1OC(=O)COP(=O)(O)O.N.N ?
Result string: 20

Query string: Tell me the measured half-life of C=C(C)[C@@H]1CCC(C)=C[C@H]1c1c(O)cc(CCCCC)cc1OC(=O)C(C)OP(=O)(O)O.N.N (stereo partly drawn) , please.
Result string: 21

Query string: Which measured half-life value corresponds to C=C(C)[C@@H]1CCC(C)=C[C@H]1c1c(O)cc(CCCCC)cc1OC(=O)C(C)(C)OP(=O)(O)O.N.N ?
Result string: 24

----------
Please provide measured half-life for the entries that follow.
Experiment: Plasma stability assay (human plasma)
Assay type: in vitro ADME
Conditions: 37° C., read-out: T½ in human plasma (converted)

Query string: Given the compound C=C(C)[C@@H]1CCC(C)=C[C@H]1c1c(O)cc(CCCCC)cc1OC(=O)C1(OP(=O)(O)OCCC(C)C)CC1.N [14c] , what is its reported half-life?
Result string: > 240 min

Query string: Given the compound C=C(C)[C@@H]1CCC(C)=C[C@H]1c1c(O)cc(CCCCC)cc1OC(=O)C1(OP(=O)(O)OCCCCC)CC1.N [14b] , what is its reported half-life?
Result string: 576 min

Query string: Which half-life value is on record for C=C(C)[C@@H]1CCC(C)=C[C@H]1c1c(O)cc(CCCCC)cc1OC(=O)NCCOP(=O)(O)O.N.N [38a] ?
Result string: > 240 min

Query string: Which half-life reading was recorded for the compound C=C(C)[C@@H]1CCC(C)=C[C@H]1c1c(O)cc(CCCCC)cc1OC(=O)C1(OP(=O)(O)OCCCCCC)CC1.N [14d] ?
Result string: > 240 min

Query string: Query (compound): C=C(C)[C@@H]1CCC(C)=C[C@H]1c1c(O)cc(CCCCC)cc1OC(=O)C1(OP(=O)(O)OCCCCCCCCC)CC1.N [14f] ; field requested: half-life
Result string: > 240 min

----------
Answer each item with its documented half-life.
Test: Plasma stability assay (human plasma)
Format: in vitro ADME
Conditions: 37° C., read-out: T½ in human plasma (converted)
Your answer should be a plain number; it is taken to be in h.

Query string: Entry under review: C=C(C)[C@@H]1CCC(C)=C[C@H]1c1c(O)cc(CCCCC)cc1OC(=O)OCCOP(=O)(O)O.N.N [29a] . Reported half-life?
Result string: 16.5

Query string: So what's the measured half-life for this one? C=C(C)[C@@H]1CCC(C)=C[C@H]1c1c(O)cc(CCCCC)cc1OC(=O)C1CC(OP(=O)(O)O)C1.N.N (stereo partly shown)
Result string: 7.2

Query string: What does the record list as half-life for C=C(C)[C@@H]1CCC(C)=C[C@H]1c1c(O)cc(CCCCC)cc1OC(=O)C1(OP(=O)(O)OCc2ccccc2)CC1.N ?
Result string: 5.3

----------
Assay: Liver microsome stability assay (HLM)
Format: in vitro ADME
Settings: human, microsomes, pH 7.4; 3 μM test compound, NADPH; read-out: T½ in HLM
measured attribute: half-life (min)
Give just the numeric value; min need not be written.

Query string: For the compound shown here, C=C(C)[C@@H]1CCC(C)=C[C@H]1c1c(O)cc(CCCCC)cc1OC(=O)C1(OP(=O)(O)O)CC1.N.N [7b] , give the reported half-life.
Result string: 157

Query string: Requested field: half-life. Item: C=C(C)[C@@H]1CCC(C)=C[C@H]1c1c(O)cc(CCCCC)cc1OC(=O)C1(OP(=O)(O)OCCOCCOC)CC1.N [14j]
Result string: 24

Query string: Given the entry C=C(C)[C@@H]1CCC(C)=C[C@H]1c1c(O)cc(CCCCC)cc1OC(=O)C(C)OP(=O)(O)O.N.N (stereo partly shown) [7d] , report its measured half-life.
Result string: 50

Query string: Item under review: C=C(C)[C@@H]1CCC(C)=C[C@H]1c1c(O)cc(CCCCC)cc1OC(=O)C1(OP(=O)(O)OCC(CCC)CCC)CC1.N [14h] . Reported half-life?
Result string: 26

Query string: Could you tell me which half-life is on file for C=C(C)[C@@H]1CCC(C)=C[C@H]1c1c(O)cc(CCCCC)cc1OC(=O)C1(OP(=O)(O)OCc2ccccc2)CC1.N [compound 8] ?
Result string: 23

Query string: Name the recorded half-life for C=C(C)[C@@H]1CCC(C)=C[C@H]1c1c(O)cc(CCCCC)cc1OC(=O)NCCCOP(=O)(O)O.N.N [38c] .
Result string: 73

Query string: What value of half-life has been reported for the following compound? C=C(C)[C@@H]1CCC(C)=C[C@H]1c1c(O)cc(CCCCC)cc1OC(=O)C1(OP(=O)(O)OCCCCC)CC1.N [14b]
Result string: 24
